Source listed as patent US7906507B2.

Catalogue of EC50 values
molecular target: cloned human GLP-1 receptor (Homo sapiens, UniProt P43220); test: Functional cell-based assay: cAMP functional assay
Sequence (P43220 24-463): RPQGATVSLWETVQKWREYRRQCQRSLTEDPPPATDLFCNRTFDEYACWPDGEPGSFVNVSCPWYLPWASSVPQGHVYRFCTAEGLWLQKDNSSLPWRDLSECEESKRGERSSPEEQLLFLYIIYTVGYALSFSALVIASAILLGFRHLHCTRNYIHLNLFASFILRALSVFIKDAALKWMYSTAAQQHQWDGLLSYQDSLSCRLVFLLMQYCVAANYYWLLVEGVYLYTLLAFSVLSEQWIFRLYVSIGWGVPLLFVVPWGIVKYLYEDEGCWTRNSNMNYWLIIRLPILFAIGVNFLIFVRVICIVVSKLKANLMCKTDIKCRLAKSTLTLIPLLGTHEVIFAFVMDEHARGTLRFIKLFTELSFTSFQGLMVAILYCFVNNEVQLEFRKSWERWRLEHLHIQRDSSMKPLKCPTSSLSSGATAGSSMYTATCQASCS

{"Compound": "CC(C)COC(=O)N1Cc2cc3c(cc2C[C@H]1C(=O)N[C@@H](Cc1ccc(-c2ccc(C#N)cc2)cc1)C(=O)O)NC(=O)C(c1ccc(OCc2ccc(Cl)c(Cl)c2)cc1)O3 (stereo partly drawn) [Example 9]", "EC50 [nM]": 500}
{"Compound": "CN1C(=O)C(c2ccc(OCc3ccc(Cl)c(Cl)c3)cc2)Oc2cc3c(cc21)C[C@@H](C(=O)N[C@@H](Cc1ccc(-c2ccc(C#N)cc2)cc1)C(=O)O)N(C1CCC1)C3 (stereo partly drawn) [Example 76]", "EC50 [nM]": 1140}
{"Compound": "CCC(c1ccccc1)N1Cc2cc3c(cc2C[C@H]1C(=O)N[C@@H](Cc1ccc(-c2ccc(C#N)cc2)cc1)C(=O)O)N(C)C(=O)C(c1ccc(OCc2ccc(Cl)c(Cl)c2)cc1)O3 (stereo partly drawn) [Example 70]", "EC50 [nM]": 988}

###

molecular target: cloned human GLP-1 receptor (Homo sapiens, UniProt P43220); construct: expressed in transfected cells; host or cells: CHO or HEK-293 cells; experiment: Functional cell-based assay: cAMP functional assay; settings: 0.5 h; percentage relative to maximal GLP-1-induced cAMP accumulation; na = not active in the assay; read-out: % activation
Measurement kind: Emax

{"Molecule": "N#Cc1ccc(-c2ccc(C[C@H](NC(=O)[C@@H]3Cc4cc5c(cc4CN3Cc3cccs3)OC(c3ccc(OCc4ccc(Cl)c(Cl)c4)cc3)C(=O)N5)C(=O)O)cc2)cc1 (stereo partly drawn)", "Result": "34%"}
{"Molecule": "O=C1Nc2cc3c(cc2OC1c1ccc(OCc2ccc(Cl)c(Cl)c2)cc1)CN(C(=O)c1ccccc1)[C@H](C(=O)N[C@@H](Cc1ccc(Oc2ccncc2)cc1)C(=O)O)C3 (stereo partly drawn)", "Result": "28%"}
{"Molecule": "N#Cc1ccc(-c2ccc(C[C@H](NC(=O)[C@@H]3Cc4cc5c(cc4CN3C(=O)c3ccccc3)OC(c3ccc(OCc4cnc(Cl)c(Cl)c4)cc3)C(=O)N5)C(=O)O)cc2)cc1 (stereo partly drawn)", "Result": "36%"}

###

target: human GLP-1 receptor (Homo sapiens); construct: expressed in transfected cells; host or cells: HEK-293 or CHO cells (membranes); assay: Receptor binding assay: [125I]GLP-1 (aa 7-36) equilibrium radioligand binding; conditions: membranes from HEK-293 or CHO cells expressing the human GLP-1 receptor; room temp 120 min
Sequence (P43220 24-463): as above
Catalogue of % binding vs [125I]GLP-1 values

{"Compound": "CC[C@@H](c1ccccc1)N1Cc2cc3c(cc2C[C@H]1C(=O)N[C@@H](Cc1ccc(-c2ccc(F)cc2)cc1)C(=O)O)N(C)C(=O)[C@H](c1ccc(OCc2ccc(Cl)c(Cl)c2)cc1)O3", "Display unit": "%", "% binding vs [125I]GLP-1": 65}
{"Compound": "CC[C@H](c1ccccc1)N1Cc2cc3c(cc2C[C@H]1C(=O)N[C@@H](Cc1ccc(-c2ccc(C#N)cc2)cc1)C(=O)O)N(C)C(=O)[C@@H](c1ccc(OCc2ccc(Cl)c(Cl)c2)cc1)O3", "Display unit": "%", "% binding vs [125I]GLP-1": 44}
{"Compound": "N#Cc1ccc(-c2ccc(C[C@H](NC(=O)[C@@H]3Cc4cc5c(cc4CN3C(=O)c3ccccc3)OC(c3ccc(OCc4ccc(Cl)c(Cl)c4)cc3)C(=O)N5)C(=O)O)cc2)cc1 (some centres unmarked)", "Display unit": "%", "% binding vs [125I]GLP-1": 68}
{"Compound": "CC[C@H](c1ccccc1)N1Cc2cc3c(cc2C[C@H]1C(=O)N[C@@H](Cc1ccc(-c2ccc(C#N)cc2)cc1)C(=O)O)N(C)C(=O)[C@H](c1ccc(OCc2ccc(Cl)c(Cl)c2)cc1)O3", "Display unit": "%", "% binding vs [125I]GLP-1": 60}
{"Compound": "N#Cc1ccc(-c2ccc(C[C@H](NC(=O)[C@@H]3Cc4cc5c(cc4CN3Cc3ccccn3)OC(c3ccc(OCc4ccc(Cl)c(Cl)c4)cc3)C(=O)N5)C(=O)O)cc2)cc1 (some centres unmarked)", "Display unit": "%", "% binding vs [125I]GLP-1": 60}
